# experimentalTarget: Proteasome Macropain subunit MB1 (Homo sapiens)
# measurementDescription: Inhibition of chymotrypsin like activity of 20S proteasome (unknown origin) using suc-leu-leu-val-tyr-AMC as substrate at 10 uM after 40 mins in presence of nickel by fluorescence assay
Active and inactive are the calls of the source. The rule behind the calls is not given here.
readoutLabel: inhibition

Recorded inhibition, per entry:
- O=C1COc2c1ccc(O)c2O: Active
- CCN(CC)C(=S)SSC(=S)N(CC)CC: Active
- NC(=O)SCC(=O)Nc1ccccc1C(=O)O: Active
- OCc1cc(O)c(CO)nn1: Active
- O=c1oc2c(cc1O)oc(=O)c1cc(O)c(O)c(O)c12: Active
- O=C(O)c1ccc(O)c(O)c1: Active

Continue with the compound presented below.
// inhibition value for O=C1c2c(O)cc(O)cc2OCC1c1ccc(O)cc1 (configuration not stated) : Active
